src = paper PMC5540273

Tested on: ADCK3
Construct: gene CABC1
Conditions: concentration: 1 μM, replicates: in singlicate; n = 1;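 also: KINOMEscan kinase panel screen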
Classify by measured %Inh: 1 (yes) if it is equal to or exceeds 20%, 0 (no) if it is smaller.

stdin: // inclusive: %Inh at least 20%? input: Cn1cc(-c2[nH]c3cc(NC(=O)[C@H](N)C4CCCCC4)cc4c3c2C=NNC4=O)cn1
stdout: 0 (no)

stdin: Test whether the compound C[C@@H](Oc1cc(-n2cnc3cc(-c4ccnc(NCCS(C)(=O)=O)c4)ccc32)sc1C(N)=O)c1ccccc1Cl [GSK907232] records %Inh of 20% or higher.
stdout: 1 (yes)

stdin: Determine whether measured %Inh meets or exceeds 20% for Cn1cc(-c2ccc3c(c2)CCN3C(=O)Cc2cccc(Cl)c2)c2c(N)ncnc21 [GSK2606590]
stdout: 0 (no)

stdin: Check if %Inh >= 20% (inclusive). Item: O=C(Nc1cccc(Oc2ccc3nc(NC(=O)C4CC4)cn3n2)c1)c1ccccc1C(F)(F)F
stdout: 0 (no)

stdin: Given CCn1c(-c2nonc2N)nc2c(C#CC(C)(C)O)nc(OC[C@H](N)c3ccccc3)cc21 [GSK943949] , state whether its %Inh is at least 20%.
stdout: 0 (no)

stdin: Is it the case that COC(=O)Nc1nc2ccc(Oc3ccc(NC(=O)Nc4cc(C(F)(F)F)ccc4F)cc3)cc2n1C.Cl [GW692089] has %Inh reaching or exceeding 20%?
stdout: 0 (no)

stdin: For this compound, is measured %Inh 20% or higher? Cl.NC(=O)c1cccc(Nc2nccc(Nc3ccc(Oc4c(Cl)cccc4Cl)c(Cl)c3)n2)c1 [GW659009]
stdout: 0 (no)

stdin: Determine whether this compound has %Inh no lower than 20%: Cc1ccc(S(=O)(=O)Nc2ccc(Nc3nccc(Nc4cccc5[nH]ncc45)n3)cc2)cc1 [GSK581271]
stdout: 1 (yes)

stdin: Threshold query (%Inh >= 20%) on Cc1ccc(C(=O)Nc2ccc(Nc3ccnc4cc(-c5nccs5)ccc34)cc2O)cc1.Cl [GW494702]
stdout: 0 (no)

stdin: Can CN1CCN(Cc2cccc(-c3ccc4c(Nc5ccc(Oc6ccccc6)cc5)ccnc4c3)c2)CC1 [GW578342] be said to have %Inh at or above 20%?
stdout: 0 (no)

stdin: Would you say Fc1ccc(-c2ncn(C3CCNCC3)c2-c2ccnc(Oc3ccc(-c4ccccc4)cc3)n2)cc1 [SB-245391] shows %Inh at minimum 20%?
stdout: 0 (no)

stdin: Check the entry Cl.Cl.NCC(C(=O)Nc1cc(Br)c(-c2ccnc3[nH]ccc23)s1)c1ccccc1 (stereo not shown) [GSK1269851] : does %Inh equal or exceed 20%?
stdout: 1 (yes)

stdin: Hi, just wondering whether O=C(Nc1cccc(-c2nn3ccccc3c2-c2ccnc(Nc3cccc(F)c3)n2)c1)c1c(F)ccc(F)c1Cl [GSK357952] shows %Inh of 20% or higher.
stdout: 0 (no)

stdin: Please tell me: is the compound CCCCc1nn2ncccc2c1-c1ccnc(Nc2ccc(N3CCN(C)CC3)cc2)n1 [GW684941] at or over 20% in terms of %Inh?
stdout: 1 (yes)

stdin: Please indicate if the recorded %Inh for Cl.Cl.NCC(NC(=O)c1cc(-c2ccccc2)c(-c2ccnc3[nH]ccc23)s1)c1ccccc1 (stereo not shown) [GSK1321561] meets or exceeds 20%.
stdout: 1 (yes)

====

For each record, write down the corresponding %Inh.
Tested on: ASK2
Construct: gene MAP3K6
Conditions: concentration: 1 μM, replicates: in singlicate; n = 1
Form entry: value (%) — number only.

Per the record, COc1cc(Nc2nccc(-c3c(-c4cccc(NC(=O)c5c(F)cccc5F)c4)nn4ncccc34)n2)cc(OC)c1OC has %Inh of 8

Entry O=C(Nc1cccc(-c2nn3ccccc3c2-c2ccnc(Nc3cccc(C(F)(F)F)c3)n2)c1)c1c(F)cccc1F ; %Inh = 2

// %Inh value for CC(=O)Nc1nc2cnc(Nc3cc(NC(=O)c4cccc(C5(C#N)CC5)c4Cl)ccc3C)nc2s1 : 0

====

Tested on: CDK4-cyclinD3
Conditions: concentration: 1 μM, replicates: in singlicate; n = 1
Please go through the items and note down their %Inh.
Kindly provide the numeric value in % only, without the unit symbol.

Data point: CCn1c(-c2nonc2N)nc2c(C#CC(C)(C)O)ncc(OCCCCN)c21.O=C(O)C(F)(F)F.O=C(O)C(F)(F)F ; %Inh = 0

Form: molecule = O=C(O)C(F)(F)F.O=C(O)C(F)(F)F.O=c1[nH]ccc2nc(N[C@@H]3CCCNC3)nc(Nc3ccc(S(=O)(=O)N4CCOCC4)cc3)c12 ; %Inh = 99.8

Notebook: COc1cccc(C2=C(Nc3ccc(Cl)c(C(=O)O)c3)C(=O)NC2=O)c1 , %Inh read as 100

Please fill in: %Inh reported for COc1ccc(Nc2nccc(N3CCC(NC(=O)Nc4cccc(OC)c4)C3)n2)cc1 (centres unmarked) = 0

Input Cc1ccc(C(=O)N2CC[C@@H](O)C2)cc1-n1c(C)cc(OCc2ccc(F)cc2F)c(Br)c1=O . Output %Inh: 0

Entry under test: COc1cc(Nc2nccc(-c3c(-c4cccc(NC(=O)c5c(F)cccc5F)c4)nn4ccccc34)n2)cc(OC)c1OC . Its %Inh was 0

Value of %Inh reported for the molecule Cn1cc(-c2ccc3c(c2)CCN3C(=O)Cc2cccc(Cl)c2)c2c(N)ncnc21 is 0

// %Inh lookup, molecule = CN(C)S(=O)(=O)c1cc(-c2ccc3nccc(-c4cccc(S(N)(=O)=O)c4)c3c2)cnc1N , result: 0

====

System: RSK2(Kin.Dom.1-N-terminal)
Construct: gene RPS6KA3
Conditions: concentration: 1 μM, replicates: in singlicate; n = 1
%Inh strictly under 20% means 1.0; at 20% or over means 0.0.

stdin: Does the reported %Inh of Cc1ccc(F)c(C(=O)Nc2cccc(-c3nn4ccccc4c3-c3ccnc(Nc4cccc(F)c4)n3)c2)c1F stay below 20%?
stdout: 1.0

stdin: Threshold test, %Inh < 20%: CC(=O)Nc1nc2cnc(Nc3cc(NC(=O)c4cccc(C5(C#N)CC5)c4Cl)ccc3C)nc2s1
stdout: 1.0

stdin: Quick check: %Inh of COc1cccc(NC(=O)NC2CCN(c3ccnc(Nc4cc(OC)c(OC)c(OC)c4)n3)C2)c1 (stereo not drawn) under 20%?
stdout: 1.0

stdin: Lab log: compare recorded %Inh with 20%; is it strictly lower for COc1cc(Nc2nccc(-c3c(-c4cccc(NC(=O)c5c(F)cccc5F)c4)nn4ccccc34)n2)cc(OC)c1OC ?
stdout: 0.0

stdin: Is it true that %Inh reported for C[C@@H]1CC[C@@H](C(=O)Nc2ccccc2)CN1c1cc(-c2ccc3c(N)n[nH]c3c2)nc(N)n1 is less than 20%?
stdout: 1.0

stdin: In the record for Cc1cccc(Nc2nc(N[C@H]3CCNC3)ncc2C(N)=O)c1.Cl , is %Inh less than 20%?
stdout: 0.0

stdin: Quick check: %Inh of Nc1ncnc2c1nc(-c1ccccc1)n2-c1ccccc1 under 20%?
stdout: 0.0

stdin: Consider the molecule Cl.Cl.NCC(NCc1ccc(-c2ccnc3[nH]ccc23)s1)c1ccccc1 (stereo not drawn) . Is its %Inh strictly less than 20%?
stdout: 0.0

stdin: Please determine if Cc1ccc(S(=O)(=O)Nc2ccc(Nc3nccc(Nc4cccc5[nH]ncc45)n3)cc2)cc1 is below 20% in terms of %Inh.
stdout: 1.0

stdin: Threshold test, %Inh < 20%: Cl.c1ccc(-c2ccc3c(Nc4ccc5[nH]ccc5c4)ccnc3c2)nc1
stdout: 1.0

stdin: Hello, is %Inh of the following molecule strictly smaller than 20%? Fc1ccc(-c2ncn(C3CCNCC3)c2-c2ccnc(Oc3ccc(-c4ccccc4)cc3)n2)cc1
stdout: 0.0

stdin: For COc1cccc(C2=C(Nc3ccc(Cl)c(C(=O)O)c3)C(=O)NC2=O)c1 , is the recorded %Inh below the cut-off of 20%?
stdout: 0.0

stdin: I wonder whether COc1cccc(-c2ccc3c(NC(=O)C4CC4)n[nH]c3n2)c1 has %Inh below 20%. Can you tell?
stdout: 1.0

stdin: Quick check: does CCn1c(-c2nonc2N)nc2c(C#CC(C)(C)O)nc(OC[C@H](N)c3ccccc3)cc21 have %Inh under 20%?
stdout: 1.0

stdin: Given CN(C)S(=O)(=O)c1cc(-c2ccc3nccc(-c4cccc(S(N)(=O)=O)c4)c3c2)cnc1N , is recorded %Inh strictly lower than 20%?
stdout: 0.0

stdin: %Inh strictly < 20% for this molecule? NCCCC(NC(=O)c1cc(Br)c(-c2ccnc3[nH]ccc23)s1)c1ccccc1.O=C(O)C(F)(F)F.O=C(O)C(F)(F)F (stereo not drawn)
stdout: 0.0

stdin: Please let me know if CN1CCN(Cc2cccc(-c3ccc4c(Nc5ccc(Oc6ccccc6)cc5)ccnc4c3)c2)CC1 shows %Inh below 20%.
stdout: 1.0

stdin: Quick check: does O=C(Nc1ccccc1F)NC1CCN(c2ccnc(Nc3ccc(F)cc3)n2)CC1 have %Inh under 20%?
stdout: 1.0
